Target: Hypoxia-inducible factor 1-alpha (Homo sapiens)
Assay: HIF-2a and HIF-1a reporter inhibition panel, dose response, selectivity assay for HIF-2a inhibitor project, cell-based, luminescence (AID 651581)
Conditions: HIF-1a, mean of runs
Activity calls are given as the source filed them. No rule for the calls is given here.
// allowed return values: active, inactive

Consider the worked cases shown below.
smiles	category
Cc1ccc(S(=O)(=O)c2ncccc2[N+](=O)[O-])cc1	inactive
CC1(C)CC[C@]2(C(=O)O)CC[C@]3(C)C(=CC[C@@H]4[C@@]5(C)CC[C@H](O[C@@H]6O[C@H](C(=O)O)[C@@H](O)[C@H](O[C@@H]7OC[C@H](O)[C@H](O)[C@H]7O)[C@H]6O)C(C)(C)[C@@H]5CC[C@]43C)[C@@H]2C1	inactive
CN(C)c1c([N+](=O)[O-])cc(N2C(=O)C=CC2=O)cc1[N+](=O)[O-]	active
Nc1ccc(-c2ncc(-c3ccccc3)o2)cc1	active
O=C(O)COc1ccc(-c2nccc(-c3ccccn3)n2)cc1	inactive
Cn1c(/C=C/c2ccc(Cl)cc2)c([N+](=O)[O-])c(=O)n(C)c1=O	inactive

Exercise: Lab log entry: Cc1c(CCC(=O)N2CCC[C@H]2C(=O)O)c(=O)oc2c(C)c3oc4c(c3cc12)CCCC4 — outcome as called in the assay?
Key: active

Exercise: Lab log entry: CCOC(=O)Cc1csc(NC(=S)NC(=O)c2ccccc2)n1 — outcome as called in the assay?
Key: active

Exercise: Lab log entry: CC(=O)Nc1ccc(OS(=O)(=O)c2c(C)cc(C)cc2C)cc1 — outcome as called in the assay?
Key: active

* * *

Target: Endothelial PAS domain-containing protein 1 (Homo sapiens) (UniProt Q99814)
Experiment: HIF-2a and HIF-1a reporter inhibition panel, dose response, selectivity assay for HIF-2a inhibitor project, cell-based, luminescence (AID 651581)
Conditions: HIF-2a PANC, mean of runs
Activity calls are given as the source filed them. No rule for the calls is given here.
// allowed return values: True = active, False = inactive

smiles	system-name	category
CC(=O)Nc1ccc(OC(=O)N2CCCCC2)cc1	Endothelial PAS domain-containing protein 1 (Homo sapiens) (UniProt Q99814)	True
Cc1ccoc1C(=O)Nc1ccc(CC(=O)O)cc1	Endothelial PAS domain-containing protein 1 (Homo sapiens) (UniProt Q99814)	True
Cc1nc2cc(-c3ccccc3)nn2c(C)c1CCC(=O)N1CCN(c2ccccc2)CC1	Endothelial PAS domain-containing protein 1 (Homo sapiens) (UniProt Q99814)	True

Now examine the next entry.
Exercise: Lab log entry: O=C(NCc1ccccc1)C(=O)Nc1cccc(C(=O)O)c1 — outcome as called in the assay?
Key: False

* * *

Molecular target: Hypoxia-inducible factor 1-alpha (Homo sapiens)
Assay: HIF-2a and HIF-1a reporter inhibition panel, dose response, selectivity assay for HIF-2a inhibitor project, cell-based, luminescence (AID 651581)
Conditions: HIF-1a, mean of runs
Activity calls are given as the source filed them. The rule behind the calls is not given here.
// allowed return values: active, inactive

smiles	category
Cc1c(CCC(=O)O)c(=O)oc2cc3oc4c(c3cc12)CCCC4	active

Exercise: Lab log entry: c1c2c(cc3sc(N4CCOCC4)nc13)OCCO2 — outcome as called in the assay?
Key: inactive

Exercise: Lab log entry: COc1ccc2nc(-c3ccc(N)cc3)[nH]c2c1 — outcome as called in the assay?
Key: active

Exercise: Lab log entry: Cc1cc(NC(=O)c2ccccc2)c(Cl)cc1N — outcome as called in the assay?
Key: active

Exercise: Lab log entry: COC(=O)c1ccc(C(=O)OC)c(-n2c(=O)c3ccccc3c3ccccc3c2=O)c1 — outcome as called in the assay?
Key: inactive

Exercise: Lab log entry: O=C(Nc1cc(S(=O)(=O)N2CCOCC2)ccc1Cl)c1cc([N+](=O)[O-])ccc1Cl — outcome as called in the assay?
Key: inactive

Exercise: Lab log entry: Cc1c(CCC(=O)N2CCC(C(=O)O)(c3ccccc3)CC2)c(=O)oc2cc3oc4c(c3cc12)CCCC4 — outcome as called in the assay?
Key: active

Exercise: Lab log entry: COc1cccc(/C=N/Nc2ncccc2[N+](=O)[O-])c1OC — outcome as called in the assay?
Key: inactive

Exercise: Lab log entry: Cc1nn(-c2ccccc2)c(Cl)c1/C=N/Nc1ccc(Cl)c(C(=O)O)c1 — outcome as called in the assay?
Key: inactive

Exercise: Lab log entry: CC(=O)Nc1ccc(OC(=O)N2CCCCC2)cc1 — outcome as called in the assay?
Key: active
